Each recorded value in this set is attributed to PubChem BioAssay (NCATS).

# TESTED ON: Retinal dehydrogenase 2 (Homo sapiens)
# PROTOCOL: qHTS for Inhibitors of the Aldehyde Dehydrogenase Family (ALDH1A2) Confirmation screens (AID 2061314); note: nearly all actives have a fitted effect of over 65% in size
# CONDITIONS USED: ALDH1A2 enzyme inhibition qHTS confirmation; series mostly up to 45.9 µM
Results filed as inconclusive are left out. The source made the active and inactive calls. Calls come from the whole dose curve; as a rule, active = well fitted inhibition curve with a large enough effect; inconclusive = small, poorly fitted or top-dose-only effect; inactive = no such curve, though single readings can be large or run the other way.
Classes used: active, inactive

record_smiles=COc1cccc(CCC(=O)NCCc2nc3ccccc3n2CCOc2ccc(C)cc2)c1 label_value=inactive
record_smiles=Cc1ccc(C[C@@H](NS(=O)(=O)c2ccc(C(=O)O)cc2)C(=O)O)cc1 label_value=inactive
record_smiles=Cc1nc(NCc2ccc(-c3cccnc3)cc2)c2ccccc2n1 label_value=inactive
record_smiles=COCC(=O)NC/C=C/c1ccc2ncnc(Nc3ccc(Oc4ccc(C)nc4)c(C)c3)c2c1 label_value=inactive
record_smiles=O=S(=O)(Nc1cc(O)cc2cccnc12)c1ccc(Cl)s1 label_value=active
